- target_entity: HTRA2, O43464
- Sequence (O43464 355-458): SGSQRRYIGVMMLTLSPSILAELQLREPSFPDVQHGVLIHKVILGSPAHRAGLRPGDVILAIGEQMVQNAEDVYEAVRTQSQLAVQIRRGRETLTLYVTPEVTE
- test: holdup assay
- Design: key: below the threshold = too weak to quantify, mostly under pKd 3.1 to 4
- assay_conditions: plain residues with an end cap or a label only (N-terminal biotin on a linker: ahx)
quantity_kind: pKd

// worked examples, pKd included
binder: HSATSVHTSV [MTMR1, Q13613]
pKd: below the threshold
--
binder: ADENEQVSAV [RAPGEF6, Q8TEU7]
pKd: below the threshold
--
binder: VNENQKEYFF [CNTNAP4, Q9C0A0]
pKd: below the threshold
--
binder: SAPATLSSRA [PDLIM2, Q96JY6]
pKd: below the threshold

So, AKPQPVDSWV [ARVCF, O00192] ? Its pKd was 3.68

So, SKKNELFSNL [NHERF1, O14745] ? Its pKd was below the threshold
